# ASSAYED SYSTEM: MRP2 transporter (Homo sapiens, UniProt Q92887)
# Construct: expressed in transfected cells; host or cells: insect cells (transiently transfected); inside-out membrane vesicles
# Sequence (Q92887 whole entry): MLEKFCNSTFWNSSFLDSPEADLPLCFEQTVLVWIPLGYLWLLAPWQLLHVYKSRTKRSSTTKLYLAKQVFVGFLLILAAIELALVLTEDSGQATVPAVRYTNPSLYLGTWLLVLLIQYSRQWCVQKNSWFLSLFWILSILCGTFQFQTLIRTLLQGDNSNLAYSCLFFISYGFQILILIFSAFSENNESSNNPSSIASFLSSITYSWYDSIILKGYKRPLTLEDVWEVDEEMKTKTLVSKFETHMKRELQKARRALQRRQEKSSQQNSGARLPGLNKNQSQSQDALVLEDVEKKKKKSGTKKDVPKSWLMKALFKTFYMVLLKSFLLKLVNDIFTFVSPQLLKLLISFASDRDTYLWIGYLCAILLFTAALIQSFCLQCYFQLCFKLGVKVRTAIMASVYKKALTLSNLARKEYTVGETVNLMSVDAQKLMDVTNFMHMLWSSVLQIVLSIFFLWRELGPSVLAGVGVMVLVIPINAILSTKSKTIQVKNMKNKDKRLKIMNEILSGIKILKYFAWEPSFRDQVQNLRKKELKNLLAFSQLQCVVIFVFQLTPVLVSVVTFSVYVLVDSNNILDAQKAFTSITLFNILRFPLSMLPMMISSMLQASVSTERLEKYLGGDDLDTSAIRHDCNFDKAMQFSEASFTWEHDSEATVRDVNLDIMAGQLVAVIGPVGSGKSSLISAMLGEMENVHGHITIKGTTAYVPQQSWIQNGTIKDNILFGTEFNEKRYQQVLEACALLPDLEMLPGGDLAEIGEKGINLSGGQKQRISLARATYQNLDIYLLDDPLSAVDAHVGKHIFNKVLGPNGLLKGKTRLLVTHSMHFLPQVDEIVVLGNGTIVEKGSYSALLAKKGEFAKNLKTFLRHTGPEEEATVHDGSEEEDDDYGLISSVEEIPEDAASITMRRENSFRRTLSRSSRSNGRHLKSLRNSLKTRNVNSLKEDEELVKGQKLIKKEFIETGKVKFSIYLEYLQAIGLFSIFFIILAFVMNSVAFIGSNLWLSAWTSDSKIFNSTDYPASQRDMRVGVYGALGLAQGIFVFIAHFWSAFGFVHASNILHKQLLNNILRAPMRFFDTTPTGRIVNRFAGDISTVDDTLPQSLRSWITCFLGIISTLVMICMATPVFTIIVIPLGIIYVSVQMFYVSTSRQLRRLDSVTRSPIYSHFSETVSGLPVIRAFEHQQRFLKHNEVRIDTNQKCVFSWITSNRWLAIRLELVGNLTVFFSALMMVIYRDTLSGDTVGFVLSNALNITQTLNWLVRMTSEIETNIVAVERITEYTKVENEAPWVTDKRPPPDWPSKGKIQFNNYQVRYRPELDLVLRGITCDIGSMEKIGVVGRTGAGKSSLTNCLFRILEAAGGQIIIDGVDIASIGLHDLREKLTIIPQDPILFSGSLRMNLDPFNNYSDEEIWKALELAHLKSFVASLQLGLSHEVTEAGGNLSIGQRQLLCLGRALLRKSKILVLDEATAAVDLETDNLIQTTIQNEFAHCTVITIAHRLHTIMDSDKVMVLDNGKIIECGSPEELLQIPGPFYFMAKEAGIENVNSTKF
# PROCEDURE SUMMARY: In vitro MRP2 transporter assay (inside-out membrane vesicles, [3H]-estradiol-17β-glucuronide)
# Type: in vitro ADME
# CONDITIONS: assay conducted multiple times; read-out: MRP2 IC50 range over multiple studies
pIC50: −log10 of the molar value.
MEASUREMENT KIND: pIC50

Param readout= pIC50; system= MRP2 transporter (Homo sapiens, UniProt Q92887); entry= USCSACSACSTCSCS [RG6650] ; returns value.
< 4.00

----------
# Test system: HCV GT1b replicon
# PROCEDURE SUMMARY: HCV replicon assay (Huh7 cells, luciferase reporter)
# Format: cell-based, HCV genotype 1b
# CONDITIONS: 72 hours, Expt #1, read-out: EC50 uM Expt #1
MEASUREMENT KIND: EC50 (µM)
Record the value in µM, omitting the unit from your answer.

CSASCS^POAS^POCS^POUS^POCSCSAS [RG6371]	34.1
CsASCSASCSUSCSCSAS [RG6370]	60.9
CSASCSASCSUSCSCS [RG2634]	22.5
CSASCSASCSUSCSCSAS [RG6234]	17.4

Okay, now this substance:
// query EC50 value for entry CSASCSASCSUSCSCS [RG497998]
7.71

----------
# System: cholesterol
# PROCEDURE SUMMARY: In vivo potency: cholesterol reduction
# CONDITIONS: single subcutaneous dose (doses in umol/kg), blood after 7 days, Expt #1
Cholesterol reduction ED50 Expt #1 values for the substances below.
Number only, no unit.

Below: 2 substances and their reported Cholesterol reduction ED50 Expt #1.
USCSAS^POCS^POAS^POCS^POUSCSCS [RG6372]	0.8088
CSASCSASCSUSCSCS [RG2634]	0.011

// query Cholesterol reduction ED50 Expt #1 value for entry CSASCS^POAS^POCS^POUS^POCSCSAS [RG6371]
1.116

// query Cholesterol reduction ED50 Expt #1 value for entry CsASCSASCSUSCSCSAS [RG6370]
0.0007

----------
# Test system: miR-122
# PROCEDURE SUMMARY: In vivo potency: liver ALDOA mRNA derepression
# CONDITIONS: single subcutaneous dose, liver after 7 days, fold change in ALDOA mRNA relative to saline, Expt #1
MEASUREMENT KIND: ALDOA derepression ED50 Expt #1 (µmol/kg)
Record the value in µmol/kg, omitting the unit from your answer.

Below: 3 substances and their reported ALDOA derepression ED50 Expt #1.
CsASCSASCSUSCSCSAS [RG6370]	6.51
USCSAS^POCS^POAS^POCS^POUSCSCS [RG6372]	0.028
CSASCS^POAS^POCS^POUS^POCSCSAS [RG6371]	0.086

Okay, now this substance:
// query ALDOA derepression ED50 Expt #1 value for entry CSASCSASCSUSCSCS [RG2634]
0.029
